- experimental-system: EGFR(D770_N771insSVD) expressing Ba/F3 stable cell line (Homo sapiens, UniProt P00533, DUP768-770, cells depend on it)
- Sequence (P00533 with tags, fused parts or gaps DUP768-770): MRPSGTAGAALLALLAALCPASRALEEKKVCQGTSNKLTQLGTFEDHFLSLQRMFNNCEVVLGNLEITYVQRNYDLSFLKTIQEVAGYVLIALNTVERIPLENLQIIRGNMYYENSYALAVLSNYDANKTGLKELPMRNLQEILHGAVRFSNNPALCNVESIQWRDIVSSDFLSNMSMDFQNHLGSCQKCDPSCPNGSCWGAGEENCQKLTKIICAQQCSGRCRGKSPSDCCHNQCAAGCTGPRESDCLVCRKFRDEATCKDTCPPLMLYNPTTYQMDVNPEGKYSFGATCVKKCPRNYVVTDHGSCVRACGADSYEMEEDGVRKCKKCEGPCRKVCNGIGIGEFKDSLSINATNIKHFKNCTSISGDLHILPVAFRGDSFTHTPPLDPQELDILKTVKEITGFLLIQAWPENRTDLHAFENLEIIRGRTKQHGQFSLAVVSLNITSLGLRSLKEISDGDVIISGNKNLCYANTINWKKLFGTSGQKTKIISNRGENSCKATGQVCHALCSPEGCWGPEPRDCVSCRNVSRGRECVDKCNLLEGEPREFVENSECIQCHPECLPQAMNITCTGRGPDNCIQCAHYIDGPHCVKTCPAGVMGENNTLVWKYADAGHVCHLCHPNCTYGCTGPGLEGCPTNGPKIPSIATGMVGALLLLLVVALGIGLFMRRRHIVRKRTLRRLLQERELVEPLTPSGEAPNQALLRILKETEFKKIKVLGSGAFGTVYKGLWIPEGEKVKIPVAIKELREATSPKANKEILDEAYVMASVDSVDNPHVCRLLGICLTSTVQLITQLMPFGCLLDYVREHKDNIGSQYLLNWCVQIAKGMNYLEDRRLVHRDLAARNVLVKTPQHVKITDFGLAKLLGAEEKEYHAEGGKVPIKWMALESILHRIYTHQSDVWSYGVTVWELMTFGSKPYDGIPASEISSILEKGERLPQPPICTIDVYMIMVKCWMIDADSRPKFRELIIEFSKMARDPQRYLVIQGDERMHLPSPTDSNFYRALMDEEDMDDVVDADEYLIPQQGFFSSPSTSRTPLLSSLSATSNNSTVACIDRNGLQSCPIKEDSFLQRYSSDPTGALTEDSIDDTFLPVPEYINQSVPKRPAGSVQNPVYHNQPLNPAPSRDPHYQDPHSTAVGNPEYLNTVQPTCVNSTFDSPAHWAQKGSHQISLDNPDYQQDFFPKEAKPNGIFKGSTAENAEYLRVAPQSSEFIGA
- assay-notes: Cellular proliferation (Alamar Blue) assay, EGFR D770_N771insSVD Ba/F3
- Type: cell-based
- study-conditions: 72 hr, read-out: D770 IC50
readout-kind: GI50 (nM)

[[record]]
compound = "C=CC(=O)Nc1ccc(F)c(Nc2nc(Nc3cnn(C)c3)ncc2C(F)(F)F)c1 [Compound 36]"
measured = 357

[[record]]
compound = "C=CC(=O)Nc1ccc(F)c(Nc2nc(Nc3cnn(C)c3)ncc2-c2ccccc2C(F)(F)F)c1 [Compound 65]"
measured = 1000


a = C=CC(=O)Nc1cccc(Nc2nc(Nc3cnn(C)c3)ncc2NCc2ccccc2)c1 [Compound 32]
b = C=CC(=O)Nc1ccc(F)c(Nc2nc(Nc3cnn(C)c3)nc3ccc(C(F)(F)F)cc23)c1 [Compound 231]
c = C=CC(=O)Nc1ccc(F)c(Nc2nc(Nc3cnn(C4CCN(C)CC4)c3)ncc2Cl)c1 [Compound 14]
Query: Exam item: list the entries in increasing order of GI50. Response field: labels, in requested order.
Reply: c, a, b
(c: 320 nM, a: 824 nM, b: 8550 nM)
